Record form. Attribute: inhibition. Fill in for each entry.
target.desc: ATP-dependent translocase ABCB1 (Homo sapiens) (UniProt P08183)
Sequence (P08183 whole entry, looked up): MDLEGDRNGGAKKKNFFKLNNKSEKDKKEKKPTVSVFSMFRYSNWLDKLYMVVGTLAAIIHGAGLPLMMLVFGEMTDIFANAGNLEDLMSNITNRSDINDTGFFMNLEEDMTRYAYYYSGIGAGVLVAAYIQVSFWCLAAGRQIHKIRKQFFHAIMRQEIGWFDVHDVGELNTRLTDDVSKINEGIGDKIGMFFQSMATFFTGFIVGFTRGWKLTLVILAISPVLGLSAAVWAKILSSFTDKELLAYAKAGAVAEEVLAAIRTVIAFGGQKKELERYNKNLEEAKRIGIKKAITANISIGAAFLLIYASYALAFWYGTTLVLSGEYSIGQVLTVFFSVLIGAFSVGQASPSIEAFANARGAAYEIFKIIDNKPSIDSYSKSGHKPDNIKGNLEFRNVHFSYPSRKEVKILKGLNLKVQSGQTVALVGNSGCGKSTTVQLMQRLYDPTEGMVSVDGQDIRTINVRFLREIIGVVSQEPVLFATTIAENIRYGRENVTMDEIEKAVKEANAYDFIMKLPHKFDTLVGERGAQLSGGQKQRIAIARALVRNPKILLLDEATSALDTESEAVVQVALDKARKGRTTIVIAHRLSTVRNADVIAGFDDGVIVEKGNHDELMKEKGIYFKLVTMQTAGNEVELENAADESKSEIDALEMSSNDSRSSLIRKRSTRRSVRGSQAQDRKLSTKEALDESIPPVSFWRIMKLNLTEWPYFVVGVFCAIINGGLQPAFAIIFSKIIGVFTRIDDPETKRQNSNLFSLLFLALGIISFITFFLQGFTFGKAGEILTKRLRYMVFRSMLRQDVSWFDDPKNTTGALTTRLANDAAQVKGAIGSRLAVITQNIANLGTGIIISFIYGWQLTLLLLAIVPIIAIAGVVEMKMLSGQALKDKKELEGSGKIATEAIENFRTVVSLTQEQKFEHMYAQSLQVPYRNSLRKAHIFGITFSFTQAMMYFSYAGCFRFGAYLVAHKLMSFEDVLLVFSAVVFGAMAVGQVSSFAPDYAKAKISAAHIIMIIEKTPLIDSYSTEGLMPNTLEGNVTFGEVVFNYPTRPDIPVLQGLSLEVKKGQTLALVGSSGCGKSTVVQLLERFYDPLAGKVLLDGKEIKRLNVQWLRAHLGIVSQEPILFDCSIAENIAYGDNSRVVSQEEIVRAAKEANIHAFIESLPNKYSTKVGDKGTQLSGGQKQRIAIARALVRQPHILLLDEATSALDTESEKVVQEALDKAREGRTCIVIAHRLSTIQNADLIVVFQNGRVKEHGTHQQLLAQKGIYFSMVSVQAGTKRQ
measurement.protocol: blockers of ABCB1-mediated dye efflux – cell-based, multiplex, flow cytometry, ABCG2 counter-screen, primary screen (AID 1326);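 also: 0% = vehicle and 100% = reference inhibitor; higher value means more JC-1 retained so stronger ABCB1 efflux block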
particulars: CCRF-Adr cells, JC-1 efflux, at 6.6 µM, hits give high values
Screen size: about 190,000 compounds; about 130 (0.068%) were called active. What follows is part of a selection rich in actives, with near analogues and random picks from the rest.
Lab book: enter the figure in %, no units written.

Recall and state the measured inhibition for CC(C)CCN1CCN(C/C=C/c2ccco2)CC1CCO (configuration not stated) .
0.24

Recall and state the measured inhibition for `CCOC(=O)NC(=O)CSc1nnc(SCCC(=O)O)s1` .
0.52

Recall and state the measured inhibition for `CC(C)/C=N/NC(=O)c1cc(Br)ccc1O` .
0.05

Recall and state the measured inhibition for O=C1N/C(=N\N=C\c2ccco2)SC1Cc1ccc(F)cc1 (configuration not stated) .
-0.31

Recall and state the measured inhibition for COc1ccc(Cl)cc1NC(=O)C(C)N1CCc2ccccc21 (configuration not stated) .
0.39

Recall and state the measured inhibition for `CC(=O)c1ccc(NC(=O)CSC(=S)N2CCCC2)cc1` .
0.83

Recall and state the measured inhibition for O=C1c2cccc3c([N+](=O)[O-])ccc(c23)C(=O)N1CC1CCCO1 (configuration not stated) .
0.98

Recall and state the measured inhibition for COC(=O)C(C(=O)Nc1cccc(Cl)c1C)C1CCCC1 (configuration not stated) .
-0.03

Recall and state the measured inhibition for `CCn1c(COc2c(C)cccc2C)nnc1SCc1nc2ccccc2c(=O)[nH]1` .
0.72

Recall and state the measured inhibition for `NC(=O)COC(=O)c1sc2cc(F)ccc2c1Cl` .
-0.04

Recall and state the measured inhibition for CN(C)c1ccc(/C=N/NC(=O)C(O)c2ccc(Br)cc2)cc1 (configuration not stated) .
0.7

Recall and state the measured inhibition for CC(C)CN1CCNC(=O)C1CC(=O)N(C)CC1CCOCC1 (configuration not stated) .
0.15

====

target.desc: ATP-dependent translocase ABCB1 (Homo sapiens) (UniProt P08183)
measurement.protocol: blockers of ABCB1-mediated dye efflux – cell-based, multiplex, flow cytometry, ABCG2 counter-screen, primary screen (AID 1326)
particulars: CCRF-Adr cells, JC-1 efflux, at 6.6 µM, hits give high values
About 130 (0.068%) of roughly 190,000 compounds were called active. The sample holds actives, similar compounds and a random draw of the others, so the mix is not that of the screen.
Decide by inhibition: equal to or exceeding 0.3% means t, less means f.

Tell me whether inhibition is at least 0.3% here: `Cc1nc(S(=O)(=O)c2ccc(Br)cc2)nc2c1CCC2`
t

Tell me whether inhibition is at least 0.3% here: `COc1ccc(S(=O)(=O)N(C)CC(=O)N2CCCC2)cc1Cl`
t

Tell me whether inhibition is at least 0.3% here: `CS(=O)(=O)c1ccc2nc(NC(=O)c3ccc(Cl)nc3)sc2c1`
t

Tell me whether inhibition is at least 0.3% here: COCC(C)n1c(C)cc(C(=O)COc2ccc(C)nc2[N+](=O)[O-])c1C (stereo unspecified)
f

Tell me whether inhibition is at least 0.3% here: `c1ccc(CN=C2Nc3ccccc3CS2)nc1`
f

Tell me whether inhibition is at least 0.3% here: `CCc1nnc(NC(=O)CSc2nnnn2-c2cccc(C(C)=O)c2)s1`
f

====

Record form. Attribute: inhibition. Fill in for each entry.
target.desc: ATP-dependent translocase ABCB1 (Homo sapiens)
measurement.protocol: blockers of ABCB1-mediated dye efflux – cell-based, multiplex, flow cytometry, ABCG2 counter-screen, primary screen (AID 1326);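 also: 0% = vehicle and 100% = reference inhibitor; higher value means more JC-1 retained so stronger ABCB1 efflux block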
particulars: CCRF-Adr cells, JC-1 efflux, at 6.6 µM, hits give high values
Among all 190,000 compounds or so, about 130 (0.068%) were called active. Shown is part of a subset that was picked to be rich in actives.

Recall and state the measured inhibition for `CCCc1cc(=O)[nH]c(SCc2cc(=O)oc3c(C)c(C)ccc23)n1` .
-1.22% (inactive)

Recall and state the measured inhibition for `Nc1nc(SCC(=O)NN(c2ccccc2)c2ccccc2)n[nH]1` .
0.84% (inactive)

Recall and state the measured inhibition for `Cc1nc(CC(=O)NNS(=O)(=O)c2ccc(F)c(Cl)c2)cs1` .
1.15% (inactive)

Recall and state the measured inhibition for COCCn1c(C)cc(C(=O)CSc2nc3ccccc3c(=O)n2C(C)COC)c1C (stereo unspecified) .
2.97% (inactive)

Recall and state the measured inhibition for CC(=O)c1ccc(NC(=O)C(C)NCc2ccc(Cl)cc2)cc1 (stereo unspecified) .
0.85% (inactive)

Recall and state the measured inhibition for `Cc1ccccc1NC(=O)c1nn(-c2ccc(F)c(F)c2)ccc1=O` .
0.58% (inactive)

====

Record form. Attribute: inhibition. Fill in for each entry.
target.desc: ATP-dependent translocase ABCB1 (Homo sapiens) (UniProt P08183)
measurement.protocol: blockers of ABCB1-mediated dye efflux – cell-based, multiplex, flow cytometry, ABCG2 counter-screen, primary screen (AID 1326);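 also: 0% = vehicle and 100% = reference inhibitor; higher value means more JC-1 retained so stronger ABCB1 efflux block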
particulars: CCRF-Adr cells, JC-1 efflux, at 6.6 µM, hits give high values
About 130 (0.068%) of roughly 190,000 compounds were called active. What follows is part of a selection rich in actives, with near analogues and random picks from the rest.
Lab book: enter the figure in %, no units written.

Recall and state the measured inhibition for O=C(C1CCCO1)N1CCN(C(=S)NC2CC2)CC1 (stereo not drawn) .
0.55

Recall and state the measured inhibition for CN1CCN(C(c2cc3cc4c(cc3[nH]c2=O)OCCO4)c2nnnn2C2CCCC2)CC1 (stereo not drawn) .
0.88

Recall and state the measured inhibition for `CN(C)C(=O)N1CCNCC1` .
-0.13

Recall and state the measured inhibition for N#Cc1c(NC(=O)C2CCCO2)sc2c1CCCCC2 (stereo not drawn) .
1.4

Recall and state the measured inhibition for `Cc1ccc(C)c(-n2nnnc2SCC(=O)c2c(N)n(C)c(=O)n(C)c2=O)c1` .
-0.82

Recall and state the measured inhibition for `O=c1[nH]c2cccnc2n(CCNc2ncc(C(F)(F)F)cc2Cl)c1=O` .
0.11

Recall and state the measured inhibition for `CCC(=O)c1ccc(N2CCN(C(=O)c3cc([N+](=O)[O-])ccc3F)CC2)c(F)c1` .
2.09

Recall and state the measured inhibition for `Cc1cc(C)cc(C(=O)NC(=S)Nc2ccc3[nH]c(=O)[nH]c3c2)c1` .
-0.17

Recall and state the measured inhibition for `O=C(CN1CCCCCC1)NCCN1C(=O)S/C(=C\c2ccccc2Cl)C1=O` .
0.67

Recall and state the measured inhibition for Cc1ccsc1C1C(C#N)=C(N)OC2=C1C(=O)CC(C)(C)C2 (stereo not drawn) .
0.69

Recall and state the measured inhibition for `COc1ccc(C(=O)COC(=O)c2nn(C)c(=O)c3ccccc23)c(OC)c1` .
0.19

Recall and state the measured inhibition for `Cc1ccc(CNC(=O)CCNS(=O)(=O)c2ccc(Br)s2)cc1` .
-0.56

Recall and state the measured inhibition for `CCCNCc1cc(OCC)c(OCC(=O)Nc2ccccc2)cc1Br` .
0.07

Recall and state the measured inhibition for `Nc1nc(CC(=O)CSc2ccc(Cl)cc2)nc(Nc2ccc(F)cc2)n1` .
0.01

Recall and state the measured inhibition for `O=C(CN(c1cccc(Cl)c1)S(=O)(=O)c1ccccc1)NN=C1CCCC1` .
0.27

Recall and state the measured inhibition for `COCCNC(=S)N/N=C/c1c(C)[nH]c2ccccc12` .
-0.55

Recall and state the measured inhibition for `O=C(COC(=O)c1ccccc1C(=O)N1CCN(c2ccccc2)CC1)NCc1ccccc1` .
1.33

Recall and state the measured inhibition for `Cc1ccc(C)c(NS(=O)(=O)c2ccc(OCC(=O)NCc3cccnc3)cc2)c1` .
-0.02

Recall and state the measured inhibition for `COC(=O)c1nn(-c2cccc(Cl)c2)ccc1=O` .
-0.18

Recall and state the measured inhibition for `c1ccc2c(c1)OCCOCCOCCO2` .
0.51

Recall and state the measured inhibition for `C/C(=N/OC(=O)c1cccc(C(F)(F)F)c1)c1cnccn1` .
-0.43

Recall and state the measured inhibition for `COc1ccc(Cn2c(=O)cc(C)[nH]c2=S)cc1` .
1.2

Recall and state the measured inhibition for `C/C(=N\NC(=O)C(N)=O)c1ccc2c(c1)OCCO2` .
1.58

====

Record form. Attribute: inhibition. Fill in for each entry.
target.desc: ATP-dependent translocase ABCB1 (Homo sapiens)
measurement.protocol: blockers of ABCB1-mediated dye efflux – cell-based, multiplex, flow cytometry, ABCG2 counter-screen, primary screen (AID 1326);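 also: 0% = vehicle and 100% = reference inhibitor; higher value means more JC-1 retained so stronger ABCB1 efflux block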
particulars: CCRF-Adr cells, JC-1 efflux, at 6.6 µM, hits give high values
About 130 (0.068%) of roughly 190,000 compounds were called active. Shown is part of a subset that was picked to be rich in actives.
Lab book: enter the figure in %, no units written.

Recall and state the measured inhibition for `CCOc1ccc2nc(NC(=O)c3cc([N+](=O)[O-])ccc3N3CCOCC3)sc2c1` .
-1.41

Recall and state the measured inhibition for `O=C(N/N=C/c1ccc([N+](=O)[O-])o1)c1cccc(S(=O)(=O)N2CCOCC2)c1` .
1.78

Recall and state the measured inhibition for `Cc1ccc(SCCC(=O)OCC(=O)Nc2ncc(Cl)cc2Cl)cc1` .
0.04

Recall and state the measured inhibition for `CCn1c(-c2cccnc2Cl)nc2cc(C)c(C)cc21` .
0.26

Recall and state the measured inhibition for `O=C(c1ccc(N2CCOCC2)c([N+](=O)[O-])c1)N1CCN(S(=O)(=O)c2cccs2)CC1` .
0.44

Recall and state the measured inhibition for `COc1cccc(NC(=S)NC(=O)c2c(Cl)c(C)nn2C)c1` .
-0.45

Recall and state the measured inhibition for `COc1cc2[nH]c(=O)n(Cc3ccc(C(=O)NC4CCN(Cc5ccccc5)CC4)cc3)c(=O)c2cc1OC` .
0

Recall and state the measured inhibition for COc1ccc(C2OCC3(CO2)SC(=O)NC3=O)cc1OC (stereo not given) .
-0.28

Recall and state the measured inhibition for Cc1ccc2c(c1)C1CN(C)CCC1N2C(=S)Nc1ccc(Cl)cc1Cl (stereo not given) .
-0.2

Recall and state the measured inhibition for `Cc1nc(CN2CCN(C(=O)CCc3nnc(Cc4c[nH]c5ccccc45)o3)CC2)cs1` .
-1.57
